# TGT: T1, His-tagged human TFR1 (transferrin receptor 1) protein (human, UniProt P02786 89-760)
# T1 construct: Bought protein; The order of the tag and the receptor part is not known; also called hTFR1-His; ACROBiosystems Cat #: CD1-H5243; not shown: His tag
# ASSAY_OVERVIEW: BLI (Octet) binning; hTFR1-His captured on HIS1K; ratio = binding of analyte 2 / binding of analyte 1; competitor (analyte 1, bound first): 23B8
READOUT_TYPE: binding ratio
I only need the number, thanks.

Req: Identify the reported binding ratio for the following entry. 24A1 (antibody, human IgG1, V domains shown, Heavy-chain antibody without light chain; also called anti-TFR1 antibody 24A1) VH: EVQLVESGGGLVQPGGSLRLTCAASGFTFSSYAMSWVRQAPGKGLERVSEISGSGSSTNYADSVKGRFTISRDNSKNTLYLQMNSLRAEDTAVYYCAKDDSSGWAFNIWDQGTVVTVSS
Resp: 0

Please find the next binder below.
Req: Look up binding ratio of 24G5 (antibody, human IgG1, V domains shown, Heavy-chain antibody without light chain; also called anti-TFR1 antibody 24G5) VH: QLQLQESGGGLVQPGGSLRLTCAASGFTFSSFAMSWVRQAPGKGLERVSEISDSGGNTYYADSVKGRFTISRDNSKNTLYLQMNSLRAEDTAVYYCAKDDSSGWAFNIWDQGTVVTVSS and report it.
Resp: 0

# credit: patent US20260078197A1
